Target: T1, Cynomolgus monkey cKIT D1-5 (residues 25-520, C-terminal His tag) (cynomolgus monkey, UniProt P10721 25-520 (human entry))
T1 construct: the signal peptide was not part of the protein in the assay; also called cyno cKIT; cynomolgus monkey ECD
T1 chain: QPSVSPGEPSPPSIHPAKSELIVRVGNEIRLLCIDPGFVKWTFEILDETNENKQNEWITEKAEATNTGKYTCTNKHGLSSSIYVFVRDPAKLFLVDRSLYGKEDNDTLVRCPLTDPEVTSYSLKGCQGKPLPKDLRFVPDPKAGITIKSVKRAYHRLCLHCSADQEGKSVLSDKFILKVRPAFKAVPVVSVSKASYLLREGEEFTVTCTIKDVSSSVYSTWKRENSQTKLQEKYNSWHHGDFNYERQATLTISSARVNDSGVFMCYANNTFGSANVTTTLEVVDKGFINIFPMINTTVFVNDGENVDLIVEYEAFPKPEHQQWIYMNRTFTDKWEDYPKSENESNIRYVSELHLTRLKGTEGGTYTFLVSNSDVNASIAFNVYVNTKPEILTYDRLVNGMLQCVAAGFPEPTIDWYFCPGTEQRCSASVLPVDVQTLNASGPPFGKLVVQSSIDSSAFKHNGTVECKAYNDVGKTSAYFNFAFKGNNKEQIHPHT
Assay Protocol: SPR (Biacore 2000), antibody captured on anti-human Fc, cKIT ECD as analyte, 25 C, 1:1 fit
Observation Type: Kd (nM)

Binder	Observation Type	Result
NEG085 (antibody, human IgG1, kappa, V domains shown, Humanized, optimized variant of 9P3; human IgG1 kappa; also called unconjugated NEG085) VH: EVQLVESGGGLVQPGGSLRLSCAASGFAFSGYYMAWVRQAPGKGLEWVANINYPGSSTYYLDSVKGRFTISRDNAKNSLYLQMNSLRAEDTAVYYCARGDYYGTTYWYFDVWGQGTTVTVSS VL: DIQMTQSPSSLSASVGDRVTITCRASQSISSYLNWYQQKPGKAPKLLIYYTSRLQSGVPSRFSGSGSGTDFTLTISSLQPEDFATYYCQQGRRLWSFGGGTKVEIKR	Kd	6.14
NEG086 (antibody, human IgG1, kappa, V domains shown, Humanized, optimized variant of 9P3; human IgG1 kappa) VH: EVQLVESGGGLVQPGGSLRLSCAASGFTFSDYYMAWVRQAPGKGLEWVANINQIAGSTYYVDSVQGRFTISRDNAKNSLYLQMNSLRAEDTAVYYCARGDYYGTTYWYFDVWGQGTTVTVSS VL: DIQMTQSPSSLSASVGDRVTITCRASQSISSYLNWYQQKPGKAPKLLIYYTSRLQSGVPSRFSGSGSGTDFTLTISSLQPEDFATYYCQQGRRLWSFGGGTKVEIKR	Kd	1.34
NEG024 (antibody, human IgG1, kappa, V domains shown, Humanized, optimized variant of 9P3; human IgG1 kappa) VH: EVQLVESGGGLVQPGGSLRLSCAASGFTFSDYYMAWVRQAPGKGLEWVANINQIAGSTYYLDSVRGRFTISRDNAKNSLYLQMNSLRAEDTAVYYCARGDYYGTTYWYFDVWGQGTTVTVSS VL: EIVMTQSPATLSLSPGERATLSCRASQDISNYLNWYQQKPGQAPRLLIYYTSRLQSGIPARFSGSGSGTDYTLTISSLEPEDFAVYYCQQGKKLWSFGGGTKVEIKR	Kd	1.15
NEG087 (antibody, human IgG1, kappa, V domains shown, Humanized, optimized variant of 9P3; human IgG1 kappa) VH: EVQLVESGGGLVQPGGSLRLSCAASGFTFSDYYMAWVRQAPGKGLEWVASINQNTGSTYYLDSVRGRFTISRDNAKNSLYLQMNSLRAEDTAVYYCARGDYYGTTYWYFDVWGQGTTVTVSS VL: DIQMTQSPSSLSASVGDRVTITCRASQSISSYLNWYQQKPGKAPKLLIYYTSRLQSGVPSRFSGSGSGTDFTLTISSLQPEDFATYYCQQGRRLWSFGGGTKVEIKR	Kd	1.39
